Assay: recombinant UMI read abundance after kanamycin selection (control-corrected) (log10(CPM+1)); higher = more efficient recombination; extreme values may be limits of the assay; sequences stand for … in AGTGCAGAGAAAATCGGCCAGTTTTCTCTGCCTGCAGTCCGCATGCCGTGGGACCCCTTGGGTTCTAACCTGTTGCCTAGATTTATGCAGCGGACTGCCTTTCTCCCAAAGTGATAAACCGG…AGGTTGGTTTCACT; site = the 11-nt donor;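 note: IS621 bridge recombinase in Escherichia coli cells against a fixed T5 target plasmid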
result type: recombinant UMI read abundance (log10)

>  <sequence data>
GTCGTTACATGGACCGGTTTTCCCGGTAATCCGTATTTGGC (site GTCGTTACTGC)

>  <test result>
1.78

$$$$
>  <sequence data>
ACACATCCATGGACCGGTTTTCCCGGTAATCCGTATTTGAT (site ACACATCCTTT)

>  <test result>
0.0785

$$$$
>  <sequence data>
CGCTCCTCATGGACCGGTTTTCCCGGTAATCCGTATTTGTG (site CGCTCCTCTCA)

>  <test result>
0.976

$$$$
>  <sequence data>
CCTTAAGCATGGACCGGTTTTCCCGGTAATCCGTATTTGAT (site CCTAAAGCTAT)

>  <test result>
0

$$$$
>  <sequence data>
CGGAATCCATGGACCGGTTTTCCCGGTAATCCGTATTTGCT (site CGGAATCCTAA)

>  <test result>
0.106

$$$$
>  <sequence data>
TATTATCCATGGACCGGTTTTCCCGGTAATCCGTATTTGCT (site AATTATCCTAG)

>  <test result>
0.494

$$$$
>  <sequence data>
ACAGACACATGGACCGGTTTTCCCGGTAATCCGTATTTGTC (site ACAGACACTGA)

>  <test result>
2.7

$$$$
>  <sequence data>
AGCCTTTCATGGACCGGTTTTCCCGGTAATCCGTATTTGAC (site AGCCATTCTGT)

>  <test result>
0

$$$$
>  <sequence data>
CGCAGAACATGGACCGGTTTTCCCGGTAATCCGTATTTGCA (site CGCAGAACTTG)

>  <test result>
1.37

$$$$

Every entry's value here was drawn from the supplement of paper PMC11208160.
